- MEASURED_ON: UniProt:Q9H3N8
- Sequence (Q9H3N8 whole entry): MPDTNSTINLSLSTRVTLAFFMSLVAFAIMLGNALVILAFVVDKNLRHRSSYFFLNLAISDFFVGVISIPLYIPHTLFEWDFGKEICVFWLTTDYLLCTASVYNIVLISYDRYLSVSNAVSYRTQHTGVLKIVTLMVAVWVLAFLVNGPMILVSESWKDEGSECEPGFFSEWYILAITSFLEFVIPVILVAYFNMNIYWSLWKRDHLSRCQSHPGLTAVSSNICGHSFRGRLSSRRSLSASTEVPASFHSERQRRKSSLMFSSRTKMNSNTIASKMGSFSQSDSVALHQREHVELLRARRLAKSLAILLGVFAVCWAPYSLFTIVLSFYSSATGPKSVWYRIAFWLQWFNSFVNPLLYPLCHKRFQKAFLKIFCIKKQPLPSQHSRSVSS
Binary call on Ki with cut-off 10 nM: strictly below means true (1), and equality or higher means false (0).

Below, 5 compounds whose answers are already recorded.
[[record]]
line_notation = "CC(C)CNc1nc(N)cc(N2CCN(C)CC2)n1"
assigned_class = "false (0)"

[[record]]
line_notation = "CN[C@@H]1CCN(c2cc(N)nc(NC3CCCC3)n2)C1"
assigned_class = "true (1)"

[[record]]
line_notation = "CN[C@@H]1CCN(c2cc(N)nc(N3CCCC3)n2)C1"
assigned_class = "false (0)"

[[record]]
line_notation = "CN[C@@H]1CCN(c2cc(N)nc(NCC(C)C)n2)C1"
assigned_class = "true (1)"

[[record]]
line_notation = "CN[C@@H]1CCN(c2cc(N)nc(NC(C)C)n2)C1"
assigned_class = "true (1)"


Task: I'd appreciate it if you could check whether CC(C)Nc1nc(N)cc(N2CCN(C)CC2)n1 has Ki smaller than 10 nM.
Result: false (0)
